# Tested on: gene editing with Cas9
# method_summary: Screen of 322 new SSAP proteins, gene editing activity with Cas9 (Table 5)
# Format: cell-based
# experimental_conditions: normalized
measure_name: Cas9 with SSAP activity (normalized)
Answer as a number with no unit attached.

-- ask Which value of Cas9 with SSAP activity (normalized) has been reported for SSAP_98: SEQ ID NO: 267; Pseudomonas fluorescens (protein, listed as Pseudomonas fluorescens) NSTAETATPFSSQDLEKTQPTKAQSKTGSLASLLASPKMKSQFAAALPKHMTPERMARIVTTEIRKNPELVKCEQHSFLGAVIQCAQLGLEPGNTLGHAYILPYGKQAQLIIGYRGMIDLARRSGQIISISARTVREGDYFEYEFGLDENLIHRPVETTQPGAVTHVYAVARLKDGGRQFEVMSRAQIEEVRVQSKAAKSGPWVTHWEEMAKKTVIRRVFKYLPVSVEIQRAVMLDEKAEAGVCQENECVFDGDFEVITDTEE in the records?
-- reply 0.207

-- ask Which value of Cas9 with SSAP activity (normalized) has been reported for SSAP_131: SEQ ID NO: 300; Thermoclostridium stercorarium (protein, listed as Thermoclostridium stercorarium) TTVNQTELKNKLAEKAKTPAKTGNTVFDLIRKMEPEIKRALPKQISPERFARIAMTAVRNTPKLQACEPISFIAALMQSAQLGLEPNTPLGQAYLIPYGKEVQFQLGYQGMLTLAYRTGEYQSIYAMPVYANDEFEYEYGLNEKLVHKPAPDPEGEPIYYYAVYKLKNGGHGFVVMSRQQIERHRDKYSPSAKQGKFSPWNTDFDSMAKKTVLKQLLKYAPKSVEFATQIAQDETIKTEIAEDMTEVQGIEVEYEATDDQENQENQEQED in the records?
-- reply −0.894
